- Test system: K562
- Test protocol: NCI tumour cell line growth inhibition, 48 h
Activity calls are given as the source filed them. Rule as the data show it: active = GI50 up to about 1.1 µM and inactive = higher.
Choose one outcome from this list and give only that: class 1 = active, class 0 = inactive

Observe how each entry below is paired with its result.
O/N=C1\CCc2nonc2\C1=N/Nc1ccccc1	class 0
COc1cc2c(c(OC)c1OC)-c1cccc(=O)cc1C(NC(C)=O)CC2 (stereo unspecified)	class 1
C/C=C1\CNC1C(=O)O (stereo unspecified)	class 0
COc1ccc(N(C(=O)Nc2ccc(Cl)c(Cl)c2)c2ccccc2)cc1	class 0
COC(=O)C1Cc2c([nH]c3ccccc23)C(c2ccccc2O)N1Cc1ccccc1 (stereo unspecified)	class 0

Next compound, please.
Record request — test call for `Cc1cc(C)nc(NS(=O)(=O)c2ccc(NC(=O)c3cc([N+](=O)[O-])cc([N+](=O)[O-])c3)cc2)n1`
class 0
